Molecular target: U1A L49N (UniProt P09012 10-89, L49N)
Sequence (P09012 10-89 L49N): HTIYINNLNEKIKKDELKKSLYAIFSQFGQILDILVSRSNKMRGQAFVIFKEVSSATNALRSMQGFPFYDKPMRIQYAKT
Assay: fluorescence polarization
pKd: −log10 of the molar value.
PROPERTY_LABEL: pKd

BINDER | PROPERTY_LABEL | RECORDED_RESULT
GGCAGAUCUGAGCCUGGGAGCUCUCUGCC (structured_RNA) [TAR RNA] | pKd | 4.84

Origin of values: paper PMC4414246
